Where do the numbers come from? From ChEMBL document CHEMBL5046281.

# Tested on: Pseudomonas aeruginosa
# Assay: Inhibition of Pseudomonas aeruginosa quorum sensing system LasB at 100 uM
Active and inactive are the calls of the source. No cut-off for these calls is given here.
Endpoint: inhibition

O=C(CCS)Nc1ccc(Cl)c(Cl)c1: Active
NC(=O)NS(=O)(=O)c1ccc(NC(=O)CCS)cc1: Active
O=C(CCS)Nc1cccc(C(=O)O)c1: Active
COC(=O)c1ccc(NC(=O)CCS)cc1: Active

---

# Assay: Toxicity in zebrafish embryo assessed as maximum tolerated concentration measured up to 120 hrs
# Design: species or system Danio rerio
# Experimental context: in vivo, read-out: MTC
# MNTC at 120 h per entry

Observe how each entry below is paired with its result.
O=C(CCS)Nc1ccccc1C(=O)O: ≥ 150 µM
N=C(N)NS(=O)(=O)c1ccc(NC(=O)CCS)cc1: ≥ 150 µM

Then this compound:
Q) Consider the compound shown here: NC(=O)NS(=O)(=O)c1ccc(NC(=O)CCS)cc1 What is its recorded MNTC at 120 h?
A) ≥ 150 µM
